- Tested on: CP194
- method_description: qHTS profiling for inhibitors of Plasmodium falciparum proliferation (AID 504749); further: nearly all actives have a fitted effect of over 60% in size
- condition_description: P. falciparum in erythrocytes, SYBR Green DNA, 72 h; series mostly up to 28.7 µM
Results filed as inconclusive are left out. Active and inactive are the calls of the source. The call rests on the fitted dose curve; in most records, active means well fitted inhibition curve with a large enough effect; inconclusive means small, poorly fitted or top-dose-only effect; inactive means flat fitted curve, though single readings scatter.
Response enum: active, inactive

Example results:
Cc1ccc(=O)n(-c2ccccc2)c1 | inactive
C[C@]12CCC(=O)C=C1CC[C@@H]1[C@@H]2CC[C@@]2(C)[C@H]1CC[C@]2(O)C(=O)CO | inactive
O=C(O)CP(=O)(O)O | inactive
CCn1cc(C(=O)O)c(=O)c2cc3c(cc21)OCO3 | inactive
CC(N=C(NC#N)Nc1ccncc1)C(C)(C)C (configuration not stated) | inactive

// param item: `CC(=O)Oc1cc(C(C)C)c(OCCN(C)C)cc1C` ; yields the recorded call inactive

Look up the recorded call for `CCCCNC(=O)NS(=O)(=O)c1ccc(C)cc1` in this test. inactive

Status in this test for `C[n+]1cc2c3c(ccc2c2ccc4cc5c(cc4c21)OCO5)OCO3` ? inactive

Please indicate how the test categorized `O=C(CCNNC(=O)c1ccncc1)NCc1ccccc1` . inactive

Any idea what this test logged for NS(=O)(=O)c1cc2c(cc1Cl)NC(C1CC3C=CC1C3)NS2(=O)=O (configuration not stated) ? inactive

Record lookup: outcome of this test for `CCN(CC)CCCN(c1ccccc1)C1Cc2ccccc2C1` ? active

Please state the recorded outcome for this molecule: `Cc1nc2c([nH]1)c(=O)n(C)c(=O)n2Cc1ccco1` inactive
